Biological target: MfANGPTL4(1-130)-His
Sequence (as listed by the source): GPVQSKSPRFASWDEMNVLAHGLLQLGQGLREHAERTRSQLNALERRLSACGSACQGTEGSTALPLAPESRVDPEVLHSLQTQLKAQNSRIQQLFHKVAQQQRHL
Test: BIACORE, full mAb or Fab over amino-coupled MfANGPTL4(1-130)-His
Assay type: binding, cynomolgus monkey
Conditions: pH 7.2, 25° C.
Observable: kd (s⁻¹)

H1H284P: anti-hANGPTL4 antibody, hIgG1 isotype, HCVR/LCVR SEQ ID NOs 90/92 (antibody, V domains shown) VH: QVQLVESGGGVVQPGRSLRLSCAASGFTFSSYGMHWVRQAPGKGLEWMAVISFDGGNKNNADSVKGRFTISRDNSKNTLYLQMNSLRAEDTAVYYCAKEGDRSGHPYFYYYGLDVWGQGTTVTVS VL: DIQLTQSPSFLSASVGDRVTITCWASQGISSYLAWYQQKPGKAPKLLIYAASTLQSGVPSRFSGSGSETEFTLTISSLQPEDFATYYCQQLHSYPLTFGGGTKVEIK	5.83e-05
